From: ChEMBL document CHEMBL5137027

assay: Metabolic stability in human liver microsomes assessed as compound remaining at 100 uM incubated for 60 mins under shaking condition in absence of NADPH by LC-MS/MS analysis; assay type: ADME, Microsome; conditions: read-out: Stability
Property Name: remaining at 1 h, 100 µM (%)

# Structure Notation, Observed
records = [
    ("Fc1ccc(CNc2nc(Nc3cc(C4CC4)[nH]n3)c3ccccc3n2)c(F)c1", 104),
    ("Cc1cc(Nc2nc(NCc3ccc(F)cc3F)nc3cc(C(F)(F)F)ccc23)n[nH]1", 98.3),
    ("Cc1cc(Nc2nc(NCc3ccc(F)cc3F)nc3cc(Cl)ccc23)n[nH]1", 99.5),
    ("Cc1ccc2c(Nc3cc(C)[nH]n3)nc(NCc3ccc(F)cc3F)nc2c1", 98.1),
]
